system: NCI-H810 (Non-Small Cell Lung Carcinoma); assay: combination Emax (second highest fraction inhibited in the dose matrix, 72 h); higher = more inhibition; extreme values may be limits of the assay

{"molecule": "NC1(C(=O)N[C@@H](CCO)c2ccc(Cl)cc2)CCN(c2ncnc3[nH]ccc23)CC1 [Capivasertib] + CCN(CCO)CCCOc1ccc2c(Nc3cc(CC(=O)Nc4cccc(F)c4)[nH]n3)ncnc2c1 [AZD2811] (first compound max 10 µM, 7x7, partner max 1 µM)", "combination Emax": 0.534}
{"molecule": "COc1cc2ncnc(Nc3ccc(F)c(Cl)c3)c2cc1OCCCN1CCOCC1 [Gefitinib] + CC(C)n1c(=O)n(C)c2cnc3cc(F)c(-c4ccc(OCCCN5CCCCC5)nc4)cc3c21 [AZD1390] (first compound max 10 µM, 7x7, partner max 0.3 µM)", "combination Emax": 0.158}
{"molecule": "O=C(c1cc(Cc2n[nH]c(=O)c3ccccc23)ccc1F)N1CCN(C(=O)C2CC2)CC1 [Olaparib] + COc1nnc2ccc(N3CCC(c4ccc(OCCN5CCN(C)C(=O)[C@H]5C)cc4)CC3)nn12 [AZD5153] (first compound max 10 µM, 7x7, partner max 1 µM)", "combination Emax": 0.671}
{"molecule": "Cn1cnc2c(F)c(Nc3ccc(Br)cc3Cl)c(C(=O)NOCCO)cc21 [Selumetinib] + CC(C)n1c(=O)n(C)c2cnc3cc(F)c(-c4ccc(OCCCN5CCCCC5)nc4)cc3c21 [AZD1390] (first compound max 10 µM, 7x7, partner max 0.3 µM)", "combination Emax": 0.304}
{"molecule": "O=C(c1cc(Cc2n[nH]c(=O)c3ccccc23)ccc1F)N1CCN(C(=O)C2CC2)CC1 [Olaparib] + Cc1c2c(nn1C)CSCc1cc(n(C)n1)CSc1cc(c3ccccc3c1)OCCCc1c(C(=O)O)n(C)c3c-2c(Cl)ccc13 [AZD5991] (first compound max 10 µM, 7x7, partner max 1 µM)", "combination Emax": 0.49}
{"molecule": "NC1(C(=O)N[C@@H](CCO)c2ccc(Cl)cc2)CCN(c2ncnc3[nH]ccc23)CC1 [Capivasertib] + CC(=O)c1c(C)c2cnc(Nc3ccc(N4CCNCC4)cn3)nc2n(C2CCCC2)c1=O [Palbociclib] (first compound max 10 µM, 7x7, partner max 10 µM)", "combination Emax": 0.141}
{"molecule": "NC1(C(=O)N[C@@H](CCO)c2ccc(Cl)cc2)CCN(c2ncnc3[nH]ccc23)CC1 [Capivasertib] + C[C@@H]1COCCN1C2=NC(=NC(=C2)C3(CC3)[S@](=N)(=O)C)C4=C5C=CNC5=NC=C4 [AZD6738] (first compound max 10 µM, 7x7, partner max 10 µM)", "combination Emax": 0.648}

The values you see were collected from the supplement of paper PMC11061612.
